- Tested on: Erysiphe graminis f. sp. tritici
- protocol_details: Test A: wheat powdery mildew, preventive spray on wheat seedlings, visual disease rating
- Assay type: in vivo
- measurement_parameters: 200 ppm, 100 = 100% disease control, 0 = no control
quantity_kind: Test A rating (% disease control) (%)
The answer is to be given in %; state only the numeric part.

Entry Cc1ncc(-c2ccccc2F)c(-c2cc(O)cc(O)c2)c1-c1ccc(F)cc1 [Compound 100] needs its Test A rating (% disease control) filled in; supply it.
76

Entry COc1ccc(-c2c(C)ncc(C(C)CO)c2-c2cc(OC)cc(OC)c2)cc1 (stereo not shown) [Compound 82] needs its Test A rating (% disease control) filled in; supply it.
97

Entry COc1cc(OC)cc(-c2c(-c3ccccc3F)cnc(C)c2-c2ccc(F)cc2)c1 [Compound 35] needs its Test A rating (% disease control) filled in; supply it.
99

Field: next molecule
Entry CCC(O)(CC)c1cnc(C)c(-c2c(F)cc(F)cc2F)c1-c1cc(OC)cc(OC)c1 [Compound 98] needs its Test A rating (% disease control) filled in; supply it.
86
